Reference for the values: patent US10800789B2

Test system: NS5A chimeric genotype 2a JFH-1 replicon with genotype 2b MD2b-1 strain NS5A gene (M31 present)
Assay: Replicon assay, genotype 2b NS5A chimera
Assay type: cell-based, HCV
Conditions: Hepatitis C virus, read-out: 2b (s) (nM), genotype 2b MD2b-1 NS5A chimeric replicon (M31), stably replicating replicon cells (s)
MEASURED METRIC: EC50 (nM)
Give bare numbers, in nM.

SMI	EXPERIMENTAL RESULT
COC(=O)N[C@H](C(=O)N1[C@@H](C)CC[C@H]1c1ncc(-c2ccc3c(c2)COc2cc4c(ccc5nc([C@@H]6CC[C@H](C)N6C(=O)[C@@H](NC(=O)OC)[C@@H](C)OC(C)(C)C)[nH]c54)cc2-3)[nH]1)C(C)C	1.53
COC(=O)N[C@H](C(=O)N1[C@@H](C)CC[C@H]1c1nc2ccc3cc4c(cc3c2[nH]1)OCc1cc(-c2cnc([C@@H]3[C@@H]5C[C@@H]5CN3C(=O)[C@@H](NC(=O)OC)[C@@H](C)OC)[nH]2)ccc1-4)C(C)C	1.02
COC[C@H]1C[C@@H](c2ncc(-c3ccc4c(c3)COc3cc5c(ccc6nc([C@@H]7CC[C@H](C)N7C(=O)[C@@H](NC(=O)OC)[C@@H](C)OC)[nH]c65)cc3-4)[nH]2)N(C(=O)[C@@H](NC(=O)OC)[C@@H](C)OC)C1	0.288

Turning now to a further molecule:
Prompt: Given CC[C@H](C)[C@H](NC(=O)OC)C(=O)N1C[C@@H](COC)C[C@H]1c1nc2ccc3cc4c(cc3c2[nH]1)OCc1cc(-c2cnc([C@@H]3CC[C@H](C)N3C(=O)[C@@H](NC(=O)OC)[C@@H](C)OC)[nH]2)ccc1-4 , state its recorded EC50.
Response: 0.241

====

System: NS5A chimeric genotype 1b Con1 replicon with genotype 3a S52 strain NS5A gene
Experiment: Replicon assay, genotype 3a NS5A chimera
Assay type: cell-based, HCV
Settings: Hepatitis C virus, read-out: 3a (s), (s); activity range
MEASURED METRIC: EC50

Here's what some known entries look like.
SMI	EXPERIMENTAL RESULT
COC(=O)N[C@@H](C)C(=O)N1[C@@H](C)CC[C@H]1c1ncc(-c2ccc3c(c2)COc2cc4c(ccc5nc([C@@H]6CC[C@H](C)N6C(=O)[C@H](C)NC(=O)OC)[nH]c54)cc2-3)[nH]1	0.1 to 0.999 nM
COC(=O)N[C@H](C(=O)N1[C@@H](C)CC[C@H]1c1nc(C2CC2)c(-c2ccc3c(c2)COc2cc4c(ccc5nc([C@@H]6CC[C@H](C)N6C(=O)[C@@H](NC(=O)OC)[C@@H](C)OC)[nH]c54)cc2-3)[nH]1)[C@@H](C)OC	0.1 to 0.999 nM
COC(=O)N[C@H](C(=O)N1[C@@H](C)CC[C@H]1c1nc2ccc3cc4c(cc3c2[nH]1)OCc1cc(-c2cnc([C@@H]3[C@@H]5C[C@@H]5CN3C(=O)[C@@H](NC(=O)OC)C3CCOCC3)[nH]2)ccc1-4)C(C)C	0.1 to 0.999 nM

Turning now to a further molecule:
Prompt: Given COC(=O)N[C@H](C(=O)N1[C@@H](C)CC[C@H]1c1nc2ccc3cc4c(cc3c2[nH]1)OCc1cc(-c2cnc([C@@H]3C[C@H](F)CN3C(=O)[C@@H](NC(=O)OC)C3CCOCC3)[nH]2)ccc1-4)C(C)C , state its recorded EC50.
Response: < 0.1 nM
